# Tested on: LOLRI
# test.protocol: Pre-emergence herbicidal action against LOLRI (Table 8, titled post-emergence at 320 g/ha)
# Type: in vivo, Lolium rigidum
# condition.parameters: table stands in the pre-emergence section
readout.type: Pre-emergence herbicidal action against LOLRI in % (%)
Express it in %; write the number only.

Look over these answered cases.
compound	reading
CC#Cc1cc(C)c(C2=C(O)C3(CCC(COCC)C3)NC2=O)c(OC)c1 (stereo not drawn) [Example I-32]	100
CC#Cc1cc(C)c(C2=C(O)C3(CCC(COCCOC)C3)NC2=O)c(Cl)c1 (stereo not drawn) [Example I-51]	100

Query CC#Cc1cc(C)c(C2=C(O)C3(CCC(COC)C3)NC2=O)c(F)c1 (stereo not drawn) [Example I-34] yields Pre-emergence herbicidal action against LOLRI in % of 100

----------
Listed here are compounds together with their documented Pre-emergence action against POLCO in %.
# System: POLCO
# test.protocol: Pre-emergence herbicidal action against POLCO
# Assay type: in vivo, Polygonum convolvulus
# condition.parameters: 320 g/ha
Express it in %; write the number only.

Look over these answered cases.
compound	u	Pre-emergence action against POLCO in %
CC#Cc1cc(Br)c(C2=C(O)C3(CCC(COCC)C3)NC2=O)c(OC)c1 (centres unmarked) [Example I-05]	%	80
CC#Cc1cc(C)c(C2=C(OC(=O)C(C)C)C3(CCC(COCC)C3)NC2=O)c(OC)c1 (centres unmarked) [Example P-60]	%	80
CC#Cc1cc(Br)c(C2=C(O)C3(CCC(COC)C3)NC2=O)c(OC)c1 (centres unmarked) [Example I-10]	%	80

Lab entry: POLCO assay, compound CC#Cc1cc(Br)c(C2=C(OC(=O)OCC)C3(CCC(COC)C3)NC2=O)c(OC)c1 (centres unmarked) [Example P-08] , Pre-emergence action against POLCO in % = 100

Lab entry: POLCO assay, compound CC#Cc1cc(C)c(C2=C(OC(=O)OCC)C3(CCC(COC)C3)NC2=O)c(F)c1 (centres unmarked) [Example P-51] , Pre-emergence action against POLCO in % = 90

Lab entry: POLCO assay, compound CC#Cc1cc(Br)c(C2=C(O)C3(CCC(COC)C3)NC2=O)c(OCC)c1 (centres unmarked) [Example I-69] , Pre-emergence action against POLCO in % = 100

Lab entry: POLCO assay, compound CC#Cc1cc(C)c(C2=C(O)C3(CCC(COC)C3)NC2=O)c(Br)c1 (centres unmarked) [Example I-19] , Pre-emergence action against POLCO in % = 100

Lab entry: POLCO assay, compound CC#Cc1cc(C)c(C2=C(OC(=O)OCC)C3(CCC(COCCC)C3)NC2=O)c(OC)c1 (centres unmarked) [Example P-81] , Pre-emergence action against POLCO in % = 100

----------
Listed here are compounds together with their documented Post-emergence action at 80 g/ha against PHBPU in %.
# Test system: PHBPU
# test.protocol: Post-emergence herbicidal action against PHBPU
# Format: in vivo
# condition.parameters: assessed visually after about 3 weeks, 100% = plants have died, 0% = like control plants
Express it in %; write the number only.

compound	reading
CC#Cc1cc(F)c(C2=C(O)C3(CCC(COC)C3)NC2=O)c(OC)c1 (centres unmarked)	80
CC#Cc1cc(C)c(C2=C(O)C3(CCC(COCCC)C3)NC2=O)c(Cl)c1 (centres unmarked)	80
CC#Cc1cc(C)c(C2=C(O)C3(CCC(COCCC)C3)NC2=O)c(OC)c1 (centres unmarked)	80
CC#Cc1cc(Br)c(C2=C(O)C3(CCC(COCC)C3)NC2=O)c(OC)c1 (centres unmarked)	80

Now for another entry.
Query CC#Cc1cc(C)c(C2=C(OC(=O)OCC)C3(CCC(COCCC)C3)NC2=O)c(OC)c1 (centres unmarked) yields Post-emergence action at 80 g/ha against PHBPU in % of 80
